# TEST NAME: Apparent half life in Sprague-Dawley rat at 17 mg/kg, po measured up to 24 hrs
# Format: ADME, organism-based
# MEASUREMENT PARAMETERS: in vivo, read-out: t1/2(app) (converted)
READOUT NAME: half-life (h)

{"COMPOUND": "Cc1c(C2(c3ccc(C(F)(F)F)nc3)CC2)c[nH]c1C(=O)NC(C)c1nc[nH]n1 (stereo in doubt; form 1)", "READOUT NAME": "half-life", "RESULT": 3.7}

====

# TEST NAME: Plasma clearance in Sprague-Dawley rat at […], iv measured up to 24 hrs
# Type: ADME, organism-based
# MEASUREMENT PARAMETERS: dose 2.6 mg/kg
READOUT NAME: clearance at 24 h

{"COMPOUND SMILES": "Cc1cc(Nc2ccc(S(F)(F)(F)(F)F)cc2)n2nc(C(F)(F)F)nc2n1", "RESULT": "6.5 mL/min/kg"}

====

# TEST NAME: Binding affinity to microsome (unknown origin)
# Type: ADME
# MEASUREMENT PARAMETERS: microsomes
Listing: Activity of selected molecules
READOUT NAME: Activity (%)

{"MOLECULE": "Cc1c(Cc2ccc(C(F)(F)F)nc2)c[nH]c1C(=O)NC(C)c1cn[nH]c1 (stereo in doubt; form 1)", "RESULT": 40.5}
{"MOLECULE": "Cc1c(Cc2ccc(C(F)(F)F)nc2)c[nH]c1C(=O)NC(C)c1cnn(C)c1 (stereo in doubt; form 1)", "RESULT": 44.8}
{"MOLECULE": "Cc1cc(C(C)NC(=O)c2[nH]cc(Cc3ccc(C(F)(F)F)nc3)c2C)no1 (stereo in doubt; form 1)", "RESULT": 43.3}
{"MOLECULE": "Cc1c(C2(c3ccc(C(F)(F)F)nc3)CC2)c[nH]c1C(=O)NC(C)c1nc[nH]n1 (stereo in doubt; form 1)", "RESULT": 34.2}
{"MOLECULE": "Cc1cc(Nc2ccc(S(F)(F)(F)(F)F)cc2)n2nc(C(F)(F)F)nc2n1", "RESULT": 71.7}

====

# TEST NAME: Volume of distribution at steady state in Sprague-Dawley rat at […], iv measured up to 24 hrs
# Assay type: ADME, organism-based
# MEASUREMENT PARAMETERS: in vivo, dose 2.9 mg/kg, read-out: Vdss

{"COMPOUND": "Cc1c(Cc2ccc(C(F)(F)F)nc2)c[nH]c1C(=O)NC(C)c1cn[nH]c1 (stereo in doubt; form 1)", "Vd at 24 h": "1.7 L/kg"}

====

# TEST NAME: Plasma clearance in Sprague-Dawley rat at […], iv measured up to 24 hrs
# Type: ADME, organism-based
# MEASUREMENT PARAMETERS: dose 2.9 mg/kg

{"COMPOUND": "Cc1c(Cc2ccc(C(F)(F)F)nc2)c[nH]c1C(=O)NC(C)c1cn[nH]c1 (stereo in doubt; form 1)", "SCALE UNIT": "L/h/kg", "clearance at 24 h": 0.372}

====

# TEST NAME: Volume of distribution at steady state in Sprague-Dawley rat at […], iv measured up to 24 hrs
# Format: ADME, organism-based
# MEASUREMENT PARAMETERS: in vivo, dose 2.6 mg/kg, read-out: Vdss

{"COMPOUND SMILES": "Cc1cc(Nc2ccc(S(F)(F)(F)(F)F)cc2)n2nc(C(F)(F)F)nc2n1", "Vd at 24 h": "5.9 L/kg"}
